We begin with a simple list: items and their reported composite z-score.
assay: small molecules captured by biotinylated probe aFSTL3 – biochemical, small-molecule microarray, fluorescence 635/667, stem cell growth factor project, primary screen (AID 1064); conditions: higher = more signal;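 note: measures binding of the biotinylated anti-FSTL3 antibody to printed compounds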
// keep it numeric: no unit symbol after the value

>>> meas_value("C=C(/C(=C/C[C@H](OC(=O)c1ccncc1)c1ccc(OCCO)cc1)c1cc(C(=O)OC)ccc1OC)C(C)C")
-0.0836

What the record says about [N-]=[N+]=NCc1ccccc1[C@@H]1OC(c2ccc(OCCCO)cc2)=N[C@]1(CCS(=O)(=O)c1ccccc1)C(=O)N1CCOCC1 : composite z-score is 0.788

What the record says about COc1ccc(C#Cc2ccc3c(c2)[C@]2(C(=O)N3)[C@H](c3ccc(O)cc3)N3[C@H](c4ccccc4)[C@H](c4ccccc4)OC(=O)[C@H]3[C@@H]2C(=O)N2CCc3cc(OC)c(OC)cc3C2)cc1 : composite z-score is -0.284

What the record says about CC(=O)NCCCC[C@@H]1NC(=O)[C@H]2C[C@@H](C(=O)O)[C@@H](c3ccc(O)cc3)N2C1=O : composite z-score is -0.0025

What the record says about CO[C@H]1O[C@H](CO)[C@@H](OC(=O)Nc2ccc(Br)cc2)[C@@H]2OC(=O)[C@H](Cc3cccc(Br)c3)C/C=C/C[C@@H](Cc3cccc(Br)c3)C(=O)O[C@@H]12 : composite z-score is -0.0675

What the record says about C=CCN(Cc1ccccc1)C(=O)C(c1cccs1)N(C(=O)/C=C\C(=O)O)c1ccc(CCOCCO)cc1 (configuration not stated) : composite z-score is 0.146

What the record says about Cc1ccc(/C=C/C=O)cc1 : composite z-score is 0.16

###

We begin with a simple list: items and their reported composite z-score.
test system: PRMT1 (protein arginine N-methyltransferase 1); test: small molecules binding arginine methyltransferase PRMT1 – biochemical, small-molecule microarray, 635 nm fluorescence, primary screen (AID 1088); conditions: higher = more signal;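 note: binding of Prmt1 protein to compounds spotted on small-molecule microarray slides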

// worked examples, composite z-score included
>>> meas_value("CCOC(=O)C[C@H]1[C@H](OC(=O)c2ccc(-c3ccccc3)cc2)[C@@H](NC(=O)c2ccccc2)c2cc(OCCCO)ccc2N1C(=O)Cc1ccc(OC)cc1")
-0.719
>>> meas_value("Cc1ccc(S[C@]2(C(=O)O)CC(=O)N(C(C)C)[C@@H]2c2ccc(CO)cc2)cc1")
1.21
>>> meas_value("[N-]=[N+]=Nc1ccccc1C[C@]1(C(=O)NCc2ccccc2)N=C(c2ccc(OCCCO)cc2)O[C@H]1c1ccccc1N=[N+]=[N-]")
1.52

With those in mind, consider the next compound.
What the record says about CCOC(=O)C[C@H]1[C@H](OC(=O)c2ccc(-c3ccccc3)cc2)[C@@H](NC(=O)c2ccccc2)c2cc(OCCCO)ccc2N1C(=O)c1ccc2ccccc2n1 : composite z-score is 0.316

###

assay: binders of probe aHhip on microarray, primary screen, stem cell growth factor project, biochemical, small-molecule microarray, fluorescence 635/667 (AID 1087); settings: higher = more signal;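 note: score merges spot fluorescence at 667nm with spot signal to noise ratio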
We begin with a simple list: items and their reported composite z-score.
// keep it numeric: no unit symbol after the value

>>> meas_value("CCOC(=O)C1=CC[C@@H](c2ccc(C(F)(F)F)cc2)N(S(=O)(=O)c2ccc(C)cc2)[C@H]1c1ccccc1")
-0.0296

What the record says about C[N+](C)(C)CCCC[C@@H]1NC(=O)[C@H]2C[C@@H](C(=O)NCCCCCCNC(=O)CS)[C@@H](c3ccc(O)cc3)N2C1=O : composite z-score is -0.0994

What the record says about COc1ccc([Si](C)(C)[C@@H]2[C@@H](CCn3cc(CCO)nn3)O[C@]3(C(=O)N(Cc4cccc(N5C(=O)c6cccc7cccc5c67)c4)c4ccccc43)[C@H]2C)cc1 : composite z-score is -0.189

What the record says about C=CCOC(=O)[C@H]1[C@@H]2C(=O)O[C@@H](c3ccccc3)[C@@H](c3ccccc3)N2[C@@H](c2ccc(OCCOC(=O)[C@@H]3C[C@@H]4C(=O)N5CCC[C@H]5C(=O)N4[C@@H]3c3cccc(OCCO)c3)cc2)[C@]12C(=O)Nc1ccc(I)cc12 : composite z-score is -0.12
